Provenance of the data: patent US8993527B2

# Test system: coronary endothelial cells
# assay.overview: Inhibition of adenosine utilization in cell culture
# Assay type: cell-based
# test.parameters: Endothelial cell; 50 μM, 1 μM [3H] adenosine, 15 minutes
Outcome: yes (1) for inhibition at 50 µM of at least 30%; no (0) for anything lower.

- compound: "Nc1c(C(=O)NCc2cccc([N+](=O)[O-])c2)ncn1C1OC(CO)C(O)C1O (centres unmarked)"
  label.value: "yes (1)"
- compound: "Nc1c(C(=O)N2CCc3ccccc32)ncn1C1OC(CO)C(O)C1O (centres unmarked)"
  label.value: "no (0)"
- compound: "Nc1c(C(=O)NCc2ccc(Br)cc2)ncn1C1OC(CO)C(O)C1O (centres unmarked)"
  label.value: "yes (1)"

Req: Does the compound COc1ccc(CNC(=O)c2ncn(C3OC(CO)C(O)C3O)c2N)cc1 (centres unmarked) have recorded inhibition at 50 µM that is 30% or more?
Resp: no (0)

Req: Does the compound CC(NC(=O)c1ncn(C2OC(CO)C(O)C2O)c1N)c1ccc([N+](=O)[O-])cc1 (centres unmarked) have recorded inhibition at 50 µM that is 30% or more?
Resp: yes (1)

---

# assay.overview: Phase 2 CABG trial: plasma AICA riboside concentrations and clearance
# Type: in vivo
# test.parameters: human, intravenous, low and high doses, pre- and post-bypass, read-out: total plasma clearance (CLp) (converted)
result.type: clearance

Req: Consider the compound NC(=O)c1ncn([C@@H]2O[C@H](CO)[C@@H](O)[C@H]2O)c1N and give its measured clearance.
Resp: ~20 mL/min/kg

---

# Tested on: platelet aggregation in human whole blood
# assay.overview: Inhibition of platelet aggregation in human whole blood
# Assay type: cell-based
# test.parameters: Homo sapiens, Platelet, 10 min, 10 minutes at 37° C., 10 µM adenosine added, ADP (6-25 μM)
Structures can show the parent of a compound that is named as a salt.
Labelling: IC50 reported below 200 µM becomes satisfied; at or above becomes not satisfied.

- compound: "NC(=O)c1nc(S)n([C@@H]2O[C@H](CO)[C@@H](O)[C@H]2O)c1N [27 (1-395)]"
  label.value: "not satisfied"

Req: Report whether reported IC50 is lower than 200 µM (strictly) for Nc1c(C(=O)NCc2cccc([N+](=O)[O-])c2)ncn1C1OC(CO)C(O)C1O (stereo not drawn) [Compound No. 28 (1-348)]
Resp: satisfied

Req: Report whether reported IC50 is lower than 200 µM (strictly) for Nc1c(C(=O)NCc2ccc(Br)cc2)ncn1C1OC(CO)C(O)C1O (stereo not drawn) [Compound No. 56 (1-487)]
Resp: satisfied

Req: Report whether reported IC50 is lower than 200 µM (strictly) for Nc1c(C(=O)NCc2ccc([N+](=O)[O-])cc2)ncn1C1OC(CCl)C(O)C1O (stereo not drawn) [51 (1-466)]
Resp: satisfied

Req: Report whether reported IC50 is lower than 200 µM (strictly) for NC[C@H]1O[C@@H](n2cnc(C(=O)NCc3ccc(Cl)cc3)c2N)[C@H](O)[C@@H]1O [Compound No. 53 (1-468), Hydrochloride]
Resp: satisfied

Req: Report whether reported IC50 is lower than 200 µM (strictly) for Nc1c(C(=O)NCc2ccc(Cl)cc2)ncn1C1OC(CO)C(O)C1O (stereo not drawn) [Compound No. 29 (1-349)]
Resp: satisfied

---

# tested.system: NBTI-specific adenosine transport site (UniProt O54698)
# Sequence (O54698 1-457): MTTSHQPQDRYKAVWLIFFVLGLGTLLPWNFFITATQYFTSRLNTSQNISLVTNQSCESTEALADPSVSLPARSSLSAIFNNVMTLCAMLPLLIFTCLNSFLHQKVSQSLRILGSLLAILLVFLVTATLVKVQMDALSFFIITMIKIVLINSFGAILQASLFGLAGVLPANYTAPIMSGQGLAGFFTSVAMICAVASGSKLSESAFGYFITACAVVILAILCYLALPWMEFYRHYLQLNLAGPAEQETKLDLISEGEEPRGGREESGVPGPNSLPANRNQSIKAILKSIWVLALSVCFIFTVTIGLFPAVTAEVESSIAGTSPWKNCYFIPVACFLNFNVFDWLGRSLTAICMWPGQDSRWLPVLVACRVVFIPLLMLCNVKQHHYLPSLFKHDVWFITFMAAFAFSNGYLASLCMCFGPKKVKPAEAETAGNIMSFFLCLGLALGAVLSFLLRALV
# assay.overview: [3H]-NBTI binding assay
# test.parameters: read-out: ED50 (50% displacement of bound [3H]-NBTI); 0.5 mg neuronal membrane protein, 0.5 nM [3H]-NBTI, 30 minutes
Entries annotated with measured pEC50
Please keep in mind that pEC50 is minus log10 of the molar concentration; only the number is needed.

Here is how some compounds turned out for pEC50.
- compound: "Nc1c(C(=O)NCc2ccc([N+](=O)[O-])cc2)ncn1C1OC(CI)C(O)C1O (stereo not shown)"
  result.value: 5.10
- compound: "Nc1c(C(=O)NCc2ccc(Cl)cc2Cl)ncn1C1OC(CO)C(O)C1O (stereo not shown)"
  result.value: 4.14
- compound: "COc1ccc(CNC(=O)c2ncn(C3OC(CO)C(O)C3O)c2N)cc1 (stereo not shown)"
  result.value: 3.22

Req: pEC50 of CC(NC(=O)c1ncn(C2OC(CO)C(O)C2O)c1N)c1ccc([N+](=O)[O-])cc1 (stereo not shown) [49 (1-453)] on NBTI-specific adenosine transport site (UniProt O54698)?
Resp: 5.15

---

# tested.system: NBTI-specific adenosine transport site (UniProt O54698)
# assay.overview: [3H]-NBTI binding assay
# test.parameters: read-out: ED50 (50% displacement of bound [3H]-NBTI); 0.5 mg neuronal membrane protein, 0.5 nM [3H]-NBTI, 30 minutes
Entries annotated with measured EC50
Please state the figure in µM; there is no need to write the unit.

Here is how some compounds turned out for EC50.
- compound: "NC(=O)c1nc(S)n([C@@H]2O[C@H](CO)[C@@H](O)[C@H]2O)c1N"
  EC50 [µM]: 344
- compound: "Nc1c(C(=O)NCc2ccc(Br)cc2)ncn1C1OC(CO)C(O)C1O (centres unmarked)"
  EC50 [µM]: 32
- compound: "Nc1c(C(=O)Nc2ccc(Br)cc2)ncn1C1OC(CO)C(O)C1O (centres unmarked)"
  EC50 [µM]: 60
- compound: "Nc1c(C(=O)N2CCc3ccccc32)ncn1C1OC(CO)C(O)C1O (centres unmarked)"
  EC50 [µM]: 22
- compound: "CSC[C@H]1O[C@@H](n2cnc(C(N)=O)c2N)[C@H](O)[C@@H]1O"
  EC50 [µM]: 28
- compound: "Nc1c(C(=O)NCCc2ccc([N+](=O)[O-])cc2)ncn1C1OC(CO)C(O)C1O (centres unmarked)"
  EC50 [µM]: 2
- compound: "Nc1c(C(=O)NCc2ccc([N+](=O)[O-])cc2)ncn1C1OC(CO)C(O)C1O (centres unmarked)"
  EC50 [µM]: 3
- compound: "Nc1c(C(=O)NC2CCCC2)ncn1C1OC(CO)C(O)C1O (centres unmarked)"
  EC50 [µM]: 350

As a next step, examine the compound that follows.
Req: Consider the compound Cc1ccc(CNC(=O)c2ncn(C3OC(CO)C(O)C3O)c2N)cc1 (centres unmarked) and give its measured EC50.
Resp: 225

---

# assay.overview: Oral bioavailability and half-life in fasted adult beagles
# Format: in vivo, dog
# test.parameters: beagle, dog, in vivo
Counter-ions that a name gives are not always drawn.
result.type: half-life (h)
Please state the figure in h; there is no need to write the unit.

Req: Consider the compound NC[C@H]1O[C@@H](n2cnc(C(=O)NCc3ccc(Cl)cc3)c2N)[C@H](O)[C@@H]1O [Compound No. 53 (1-468), Hydrochloride] and give its measured half-life.
Resp: 5.61

---

# Tested on: platelet aggregation in human whole blood
# assay.overview: Inhibition of platelet aggregation in human whole blood
# Type: cell-based
# test.parameters: Homo sapiens, Platelet, 10 min, 10 minutes at 37° C., 10 µM adenosine added, ADP (6-25 μM)
result.type: pIC50
Please keep in mind that pIC50 is minus log10 of the molar concentration; only the number is needed.

- compound: "Nc1c(C(=O)NCCc2ccc([N+](=O)[O-])cc2)ncn1C1OC(CO)C(O)C1O (stereo not drawn)"
  pIC50: 4.15
- compound: "[N-]=[N+]=NCC1OC(n2cnc(C(=O)NCc3ccc(Cl)cc3)c2N)C(O)C1O (stereo not drawn)"
  pIC50: 3.32

Req: Consider the compound Nc1c(C(=O)NCc2ccc([N+](=O)[O-])cc2)ncn1C1OC(CO)C(O)C1O (stereo not drawn) and give its measured pIC50.
Resp: 4.42

---

# tested.system: NBTI-specific adenosine transport site (UniProt O54698)
# assay.overview: [3H]-NBTI binding assay
# test.parameters: read-out: ED50 (50% displacement of bound [3H]-NBTI); 0.5 mg neuronal membrane protein, 0.5 nM [3H]-NBTI, 30 minutes
Entries annotated with measured EC50
Please state the figure in µM; there is no need to write the unit.

- molecule: "C[C@H]1O[C@@H](n2cnc(C(=O)NCc3ccc(Cl)cc3)c2N)[C@H](O)[C@@H]1O [Compound No. 61 (1-509)]"
  EC50, µM: 32
- molecule: "Nc1c(C(=O)NCc2cccc([N+](=O)[O-])c2)ncn1C1OC(CO)C(O)C1O (stereo not drawn) [Compound No. 28 (1-348)]"
  EC50, µM: 15

As a next step, examine the molecule that follows.
Req: Consider the molecule NC(=O)c1nc(Sc2ccccc2)n([C@@H]2O[C@H](CO)[C@@H](O)[C@H]2O)c1N [Compound No. 43 (1-432)] and give its measured EC50.
Resp: 71
